The values you see were collected from patent US20090054471A1.

Exercise: state measured IC50 for each of the compounds provided.

Task item: Hi! What's the reported IC50 for `Fc1cccc(COc2ccc(Nc3ncnc4nn5ccccc5c34)cc2Cl)c1` on vascular endothelial growth factor receptor 2 (VEGFR2) (Homo sapiens, UniProt P35968)?
Reply: > 10 µM

Task item: Hi! What's the reported IC50 for `O=C(Nc1cccc([N+](=O)[O-])c1)Nc1ncnc2nn3ccccc3c12` on vascular endothelial growth factor receptor 2 (VEGFR2) (Homo sapiens, UniProt P35968)?
Reply: > 10 µM

* * *

pIC50: −log10 of the molar value.
ErbB-2 (Homo sapiens) pIC50 data
Sequence (P04626 676-1255 limits assumed): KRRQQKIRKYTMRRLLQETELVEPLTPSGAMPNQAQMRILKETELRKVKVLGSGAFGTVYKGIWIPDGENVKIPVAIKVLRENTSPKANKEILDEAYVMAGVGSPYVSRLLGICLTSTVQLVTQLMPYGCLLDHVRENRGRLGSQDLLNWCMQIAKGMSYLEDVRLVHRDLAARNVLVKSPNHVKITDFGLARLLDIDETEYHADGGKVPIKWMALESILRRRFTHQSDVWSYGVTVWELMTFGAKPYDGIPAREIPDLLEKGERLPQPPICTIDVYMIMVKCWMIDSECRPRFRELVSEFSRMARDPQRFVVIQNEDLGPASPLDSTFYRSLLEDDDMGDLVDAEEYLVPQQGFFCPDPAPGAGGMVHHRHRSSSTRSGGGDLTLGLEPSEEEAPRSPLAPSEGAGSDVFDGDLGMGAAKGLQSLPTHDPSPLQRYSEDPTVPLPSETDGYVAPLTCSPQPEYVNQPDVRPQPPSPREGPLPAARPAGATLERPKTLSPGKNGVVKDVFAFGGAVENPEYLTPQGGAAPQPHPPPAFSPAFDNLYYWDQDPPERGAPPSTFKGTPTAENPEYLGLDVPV

Task item: State the recorded pIC50 for this entry: C(=NNc1ncnc2nn3ccccc3c12)c1c[nH]c2ccccc12 [Example 14]
Reply: < 5.00

Task item: State the recorded pIC50 for this entry: O=C(Nc1cccc([N+](=O)[O-])c1)Nc1ncnc2nn3ccccc3c12 [Example 10]
Reply: < 5.00

Task item: State the recorded pIC50 for this entry: O=C(Nc1ccc(C(F)(F)F)cc1)Nc1ncnc2nn3ccccc3c12 [Example 12]
Reply: < 5.00
